These data points were gathered from patent US11247994B2.

ASSAY_METHOD_TEXT: Blood biochemical analysis and HE staining of tissues in HCT116 tumor-bearing nude mice
Type: in vivo
EXPERIMENTAL_CONDITIONS: tail vein once every two days, 12 times, blood 48 hours after the last treatment
ENDPOINT: Alkaline phosphatase (U/L)
One number for each entry, in U/L.

Look over these answered cases.
CCC(C)SSc1nc(N)nc2c1ncn2C1C[C@H](O)[C@@H](CO)O1 (stereo partly drawn) [Compound A, 6-(sec-butyldithio)-2′-deoxyguanosine]    36.0
Nc1nc2c(ncn2[C@H]2C[C@H](O)[C@@H](CO)O2)c(=S)[nH]1 [Compound 6-thio-dG, 6-thio-2′-deoxyguanosine, reference compound]    49.6
Nc1nc(SSCc2ccc(F)cc2)c2ncn(C3C[C@H](O)[C@@H](CO)O3)c2n1 (stereo partly drawn) [B]    31.0
CC(C)SSc1nc(N)nc2c1ncn2[C@H]1C[C@H](O)[C@@H](CO)O1 [D, 6-(isopropyldithio)-2′-deoxyguanosine]    31.5
CCC(C)SSc1ncc[nH]1 (stereo not drawn) [PX-12, 1-methylpropyl-2-imidazolyl disulfide, reference compound]    44.2

Please find the next compound below.
Request the reported Alkaline phosphatase associated with CC(C)(C)SSc1nc(N)nc2c1ncn2C1C[C@H](O)[C@@H](CO)O1 (stereo partly drawn) [Compound C, 6-(tert-butyldithio)-2′-deoxyguanosine]
33.7

----------
ASSAY_METHOD_TEXT: Blood biochemical analysis and HE staining of tissues in HCT116 tumor-bearing nude mice
Type: in vivo
EXPERIMENTAL_CONDITIONS: tail vein once every two days, 12 times, blood 48 hours after the last treatment
ENDPOINT: Sodium ion (mmol/L)
Answers are plain numbers, in mmol/L.

Answered examples (2):
CC(C)SSc1nc(N)nc2c1ncn2[C@H]1C[C@H](O)[C@@H](CO)O1    157.5
Nc1nc2c(ncn2[C@H]2C[C@H](O)[C@@H](CO)O2)c(=S)[nH]1 [Compound 6-thio-dG, 6-thio-2′-deoxyguanosine, reference compound]    158.8

Next, consider the following molecule.
Given the molecule CCC(C)SSc1ncc[nH]1 (stereo not drawn) [PX-12, 1-methylpropyl-2-imidazolyl disulfide, reference compound] , what is its reported Sodium ion?
155.8

----------
ASSAY_METHOD_TEXT: Blood biochemical analysis and HE staining of tissues in HCT116 tumor-bearing nude mice
Type: in vivo
EXPERIMENTAL_CONDITIONS: tail vein once every two days, 12 times, blood 48 hours after the last treatment
ENDPOINT: Glucose

CC(C)SSc1nc(N)nc2c1ncn2[C@H]1C[C@H](O)[C@@H](CO)O1 [D, 6-(isopropyldithio)-2′-deoxyguanosine]    3.51 mmol/L
Nc1nc2c(ncn2[C@H]2C[C@H](O)[C@@H](CO)O2)c(=S)[nH]1 [Compound 6-thio-dG, 6-thio-2′-deoxyguanosine, reference compound]    3.12 mmol/L

// next entry
// query Glucose value for entry CCC(C)SSc1nc(N)nc2c1ncn2C1C[C@H](O)[C@@H](CO)O1 (stereo partly drawn) [Compound A, 6-(sec-butyldithio)-2′-deoxyguanosine]
2.21 mmol/L

----------
Consider the following compounds; for each one, report its Total bilirubin.
ASSAY_METHOD_TEXT: Blood biochemical analysis and HE staining of tissues in HCT116 tumor-bearing nude mice
Type: in vivo
EXPERIMENTAL_CONDITIONS: tail vein once every two days, 12 times, blood 48 hours after the last treatment
Answers are plain numbers, in µmol/L.

Here are 2 compounds together with their reported answers.
CC(C)(C)SSc1nc(N)nc2c1ncn2C1C[C@H](O)[C@@H](CO)O1 (stereo partly drawn)    0.80
Nc1nc2c(ncn2[C@H]2C[C@H](O)[C@@H](CO)O2)c(=S)[nH]1 [Compound 6-thio-dG, 6-thio-2′-deoxyguanosine, reference compound]    -0.10

Query compound follows.
I have this compound here, CCC(C)SSc1ncc[nH]1 (stereo not drawn) [PX-12, 1-methylpropyl-2-imidazolyl disulfide, reference compound] , and I need its recorded Total bilirubin.
-0.90
